Measured TGI accompanies every entry in the list below.
- Test system: HT29 colon
- Measurement description: NCI tumour cell line growth inhibition, 48 h

Record excerpt, results attached:
Compound | Assay system | Reading
OCC(O)C(OC1OC(CO)C(O)C(O)C1O)c1nn(-c2ccccc2)c2nc3cc(Cl)c(Cl)cc3cc12 (centres undefined) | HT29 colon | > 100 µM
O=C(/C=C/c1ccc(Cl)c(Cl)c1)c1ccc(F)cc1 | HT29 colon | 27.6 µM
O=C(CCCCCCSc1nc(-c2ccccc2)cc(-c2ccccc2)n1)NO | HT29 colon | 11.3 µM
c1cc(CCN2CCCCC2)ccn1 | HT29 colon | > 100 µM
CS(=O)(=O)OCCn1cnc2nc(NC(=O)c3ccccc3)[nH]c(=O)c21 | HT29 colon | > 100 µM

Endpoint output: TGI of CC(C)[C@@]12C[C@@H](OC(=O)COC(=O)/C=C/c3ccccc3)[C@@](C)(O1)[C@@H]1CC[C@@H](C)[C@H]1[C@@H]2OC(=O)/C=C/c1ccccc1 . Value?
> 100 µM

For COCC1N=C(c2cc(OC)c(OC)c(OC)c2-c2cc3c(cc2C2OCCCO2)OCO3)O[C@H]1c1ccccc1 (some centres undefined) , what is its reported TGI?
> 100 µM

Fill in the blank: the reported TGI of CCOP(=O)(OCC)/C(C#N)=C/c1ccc(-c2ccc(F)cc2F)o1 is ____.
33.1 µM

Field request: TGI | item: CN(CC(=O)O)c1ccc(/C=C/c2ccnc3ccccc23)cc1
66.6 µM

Requested field: TGI. Item: COc1ccc(C(=O)/C=C/c2ccc(OCCSCCCCCCCCCCSCCOc3ccc(/C=C/C(=O)c4ccc(OC)cc4)cc3)cc2)cc1
> 100 µM

// lookup TGI for Cc1nc2cnc3cc(F)c(-c4ccc(Oc5ncccn5)cc4Cl)cc3c2n1[C@H]1CCN(C(=O)CO)C[C@@H]1F
16.9 µM

State the recorded TGI for this entry: [C-]#[O+].[C-]#[O+].[C-]#[O+].[C-]#[O+].[Ir].[Ir].[O-]c1ccc2ccccc2c1C=Nc1ccc(N=Cc2c([O-])ccc3ccccc23)cc1
> 100 µM

Suppose we examine the compound CC(C)(C)[Si](C)(C)OCC1OC(n2ccc(=O)[nH]c2=O)C(O[Si](C)(C)C(C)(C)C)[C@@]12O[C@H]2C(N)=O (some centres undefined) ; what TGI value has been reported?
12.4 µM

Using the record for O=C(Cc1ccccc1)NN1C(=O)C(Cl)C1c1ccc([N+](=O)[O-])cc1 (centres undefined) , report its TGI.
> 100 µM

Find the recorded TGI belonging to Cc1nc2sc(C(=O)Nc3cccc4ccccc34)c(N)c2cc1C(=O)/C=C/c1ccccc1 and report it.
1.06 µM

Which value of TGI has been reported for CC(=O)Nc1ccc(/C=N\N2C(=O)c3ccccc3C2=O)cc1 in the records?
> 100 µM

So what does the record say about TGI for Nc1ccc(C2NC(=O)Cc3c2ccc2ccccc32)cc1 (centres undefined) ?
> 100 µM

Give its TGI value. Item: C=C1CCC2CC1[C@@H](C(=O)c1c[nH]c3ccccc13)NC2(C)C (some centres undefined)
> 37.5 µM

Give the measured TGI of C=CCOC1=C(OCC=C)C(C2COC(C)(C)O2)OC1=O (centres undefined) .
> 100 µM
